target_of_assay: Muscarinic acetylcholine receptor M3 (Homo sapiens) (UniProt P20309)
Sequence (P20309 whole entry, looked up): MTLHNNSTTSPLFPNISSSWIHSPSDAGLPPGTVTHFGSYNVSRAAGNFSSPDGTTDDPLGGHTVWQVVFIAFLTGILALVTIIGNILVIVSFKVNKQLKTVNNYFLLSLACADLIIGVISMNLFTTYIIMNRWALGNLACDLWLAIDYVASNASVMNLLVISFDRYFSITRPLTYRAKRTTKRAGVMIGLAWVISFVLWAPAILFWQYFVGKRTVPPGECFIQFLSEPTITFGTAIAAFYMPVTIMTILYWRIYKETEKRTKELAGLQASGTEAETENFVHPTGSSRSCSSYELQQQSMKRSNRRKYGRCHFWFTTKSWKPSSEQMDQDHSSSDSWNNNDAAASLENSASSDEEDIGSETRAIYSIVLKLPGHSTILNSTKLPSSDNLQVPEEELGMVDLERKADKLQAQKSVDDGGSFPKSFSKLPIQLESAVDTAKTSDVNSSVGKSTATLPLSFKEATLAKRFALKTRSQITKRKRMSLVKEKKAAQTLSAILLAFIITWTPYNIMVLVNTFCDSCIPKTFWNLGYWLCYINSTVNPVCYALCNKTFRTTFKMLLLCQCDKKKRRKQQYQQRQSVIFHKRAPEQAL
test_protocol: NVS_GPCR_hM3: NovaScreen (NVS) G Protein-Coupled Receptor Assay for human Muscarinic, M3 Receptor (AID 2283272)
Inconclusive results are not listed. Active and inactive are the calls of the source. Rule for the calls: active = hit-call score of the fitted dose curve at least 0.9, where 1 is the maximum; inconclusive = response in the unintended direction; inactive = score below 0.9.
// allowed return values: active, inactive

CC(=O)[O][Hg][c]1ccccc1 ... active
CCC(=O)C(CC(C)N(C)C)(c1ccccc1)c1ccccc1 (centres undefined) ... active
C=C(C)C(=O)[O][Sn]([CH2]CCC)([CH2]CCC)[CH2]CCC ... active

Let us examine a further case.
For O=C1C2(Cl)C3(Cl)C4(Cl)C(Cl)(Cl)C5(Cl)C3(Cl)C1(Cl)C5(Cl)C24Cl (centres undefined) , what call appears in the results of this test? inactive

---

Read-out: Human Leukocyte Antigen - DR isotype (HLADR), HLA-DRA (gene 3122)
test_protocol: BSK_CASM3C_HLADR: BioMAP Diversity Plus: CASM3C Assay for Human Leukocyte Antigen - DR isotype (HLADR) Biomarker Activity (AID 2283043);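 note: cell-surface HLA-DR protein level quantified by ELISA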
test_parameters: primary human coronary artery smooth muscle cells; actives raise or lower the signal
Active and inactive are the calls of the source. How the source made its calls: active means hit-call score of the fitted dose curve at least 0.9, where 1 is the maximum; inactive means score below 0.9.
// allowed return values: active, inactive

CC1(C)Cc2cccc(O)c2O1 ... inactive

Let us examine a further case.
For O=S(=O)(c1ccc(Cl)cc1)c1ccc(Cl)cc1 , what call appears in the results of this test? inactive

---

test_protocol: ATG_ISRE_CIS: Attagene CIS-FACTORIAL HepG2 Assay for human Interferon Regulatory Factor 1 (IRF1) binding to an Interferon-Stimulated Response Element (ISRE) (AID 2282948)
test_parameters: HepG2 ISRE cis-reporter (Attagene), mRNA transcription readout; actives raise or lower the signal
Calls of active or inactive are those of the source. Rule for the calls: active = hit-call score of the fitted dose curve at least 0.9, where 1 is the maximum; inactive = score below 0.9.
value_type: outcome

CCOP(=O)(CN(CCO)CCO)OCC ... inactive
CCN(CC)C(=O)Cl ... inactive
N#CN=C(N)N ... inactive

---

test_protocol: ATG_PXRE_CIS: Attagene CIS-FACTORIAL HepG2 Assay for human Pregnane X Receptor Element (PXRE) (AID 2282957)
test_parameters: HepG2 Attagene CIS-FACTORIAL PXRE reporter, mRNA; actives raise or lower the signal
Activity calls are given as the source filed them. Rule for the calls: active = hit-call score of the fitted dose curve at least 0.9, where 1 is the maximum; inactive = score below 0.9.
// allowed return values: active, inactive

For orientation, consider the following solved cases.
CCOC(=O)/C=C(C)/C=C/C[C@@H](C)CCCC(C)C ... active
Clc1ccc(C2(Cn3cncn3)CC(Br)CO2)c(Cl)c1 (configuration not stated) ... active
N#CCCO ... inactive
CCC1(c2ccc(N)cc2)CCC(=O)NC1=O (configuration not stated) ... active

For Clc1nc(Cl)nc(Cl)n1 , what call appears in the results of this test? active

For Oc1ccc(-c2ccccc2)cc1 , what call appears in the results of this test? inactive

For CCOP(=S)(OCC)SCSP(=S)(OCC)OCC , what call appears in the results of this test? active

For O=[N+]([O-])c1ccc(O)c([N+](=O)[O-])c1 , what call appears in the results of this test? inactive

For OCC(O)CCl (configuration not stated) , what call appears in the results of this test? inactive

For Nc1ccc(N=Nc2ccc(-c3ccc(N=Nc4c(S(=O)(=O)O)cc5cc(S(=O)(=O)O)c(N=Nc6ccccc6)c(O)c5c4N)cc3)cc2)c(N)c1 , what call appears in the results of this test? inactive

For ClC1(Cl)C2(Cl)C3(Cl)C4(Cl)C(Cl)(Cl)C5(Cl)C3(Cl)C1(Cl)C5(Cl)C24Cl (configuration not stated) , what call appears in the results of this test? active
